Here the recorded cytotoxicity at 70.5 h is given for each entry.
- experimental_details: Human HepG2 cell viability assay in 384 well format
- Type: toxicity, cell-based
- Design: dose 125 nL, time 70.5 hour; concentration not given beside the values
- condition_parameters: HepG2 cells, read-out: Inhibition
Give just the numeric value; % need not be written.

Problem: Provide cytotoxicity at 70.5 h value for the following compound: `CN(C)c1cc(CNC(=O)c2n[nH]c(=O)c3ccccc23)ccn1`
Result: 12.8

Problem: // Input: O=C(C1CCOC1)N1CC2(CCN(c3ccccc3)C2)C1 (configuration not stated) . Output its cytotoxicity at 70.5 h only.
Result: -0.441

Problem: Let me know recorded cytotoxicity at 70.5 h for `C[C@H](NC(=O)OC(C)(C)C)c1nnc(S(=O)(=O)Cc2cccc(F)c2)o1` , thanks.
Result: -6.88

Problem: Supply recorded cytotoxicity at 70.5 h for `Cc1nc(C)c(C(=O)Nc2cc(N3CCC(C)CC3)ncn2)s1` here.
Result: 0.183

Problem: For CCC(CNC(=O)c1nc(=O)[nH][nH]1)Oc1cccc(F)c1 (configuration not stated) , write its cytotoxicity at 70.5 h.
Result: 0.426

Problem: Supply recorded cytotoxicity at 70.5 h for O=C(NCC1CC1)c1cc(C2CC2)nc2onc(C3CCCNC3)c12 (configuration not stated) here.
Result: -7.5

Problem: Give me measured cytotoxicity at 70.5 h, please, for this compound: O=c1ccc(-c2cccs2)nn1CN1CCN(C2CCS(=O)(=O)C2)CC1 (configuration not stated)
Result: -10.9

Problem: Dear colleague, please send me the reported cytotoxicity at 70.5 h for `Cc1nc(C)c(CC(=O)Nc2nnc(C(C)C)s2)c(=O)[nH]1` when you can.
Result: -5.16

More entries:
Problem: Recall and state the measured cytotoxicity at 70.5 h for Cc1nc(C(=O)N2CCCC2c2noc(C3CC3)n2)c[nH]1 (configuration not stated) .
Result: -0.671

Problem: Quote cytotoxicity at 70.5 h reported for CC(C)C(O)CCNC(=O)Nc1cc(F)ccc1-n1cccn1 (configuration not stated) please.
Result: 14.9

Value source: ChEMBL document CHEMBL3507680
